Just for reference, patent US8663616B2 is where these values come from.

Settings: 20 μM biotin-labelled peptide, 30 min 37° C.; streptavidin-HRP, QuantaBlu; three replicate enamel substrates; no peptide 494.2
Ends that are not written are not given here. * marks the point of attachment. Biotin = O=C1N[C@H]2[C@H](CS[C@H]2CCCCC(=O)*)N1
Listing of recorded Avg Fluorescence 325/420 by entry.
Reported Metric: Avg Fluorescence 325/420

1) TTYHYKNIYQESYQQRNPAVK (Biotin) [DenP03, reference compound] = 3448.3
2) SNPIPNFAHDLRHSKYNSK (Biotin) [DenP307] = 861.6
3) GSNNHLPSTVPRLTVK(Biotin) [DenP306] = 1300.0
